B1: HDV Ribozyme (parent)
chain: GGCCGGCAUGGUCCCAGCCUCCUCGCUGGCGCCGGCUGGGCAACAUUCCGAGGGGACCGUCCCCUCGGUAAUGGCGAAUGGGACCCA

# Variants of: B1
# protocol: self-cleavage, relative activity (ratio to wild type); higher = more cleavage; co-transcriptional
value-type: self-cleavage

Request: Recorded self-cleavage of GGCCGGCAUGGUCCCAGCCUCCACGCUGGCGCCGGCUGGGCAACAUUCCGAGGGGACCGUCCCCUCGGUAAUGGCGAAUGGGACCCG [U23A A87G] , please.
Result: 0.816

Request: Recorded self-cleavage of GGCCGGCAUGGUCCCAGCCUCCUCGCUGGCGCCGGCUGGGCAAAAUUCCGAGGGGACCGUCCACUCGGUAAUGGCGAAUGGGACCCA [C44A C63A] , please.
Result: 0.882

Request: Recorded self-cleavage of GGCCAGCAUGGUCCCAGCCUCCUCGCUGGCGCCGGCUGAGCAACAUUCCGAGGGGACCGUCCCCUCGGUAAUGGCGAAUGGGACCCA [G5A G39A] , please.
Result: 0.181

Request: Recorded self-cleavage of GGCCGGCAUGAUCCCAGCCUCCUCGCUGUCGCCGGCUGGGCAACAUUCCGAGGGGACCGUCCCCUCGGUAAUGGCGAAUGGGACCCA [G11A G29U] , please.
Result: 0.12

Request: Recorded self-cleavage of GGCCGGCAUGGUCCCAGCCUCCUCGCUGGCGCCGGCUGGGCAACAUUCCGAGGGGAGCGCCCCCUCGGUAAUGGCGAAUGGGACCCA [C57G U60C] , please.
Result: 1.07

Request: Recorded self-cleavage of GGCCGGCAUGGUCCCAGCCUCCUCGCUGGCGCCGGCUGGGCAACAUUCCGAGGGGACCGUUCCCUCAGUAAUGGCGAAUGGGACCCA [C61U G67A] , please.
Result: 0.562

Request: Recorded self-cleavage of GGCCGGCAUGGUCCCAGCCUCCUCGCUGGCGCCGGCUGGGCAACAUUCCGAGGGGACCGUCCCCUCGGUACUGGCGAAUGGGAGCCA [A71C C84G] , please.
Result: 0.415

Request: Recorded self-cleavage of GGCCGGCAUGGUCCCAUCCUCCUCGCUGGCGGCGGCUGGGCAACAUUCCGAGGGGACCGUCCCCUCGGUAAUGGCGAAUGGGACCCA [G17U C32G] , please.
Result: 0.0386

Request: Recorded self-cleavage of GGCCGGCAUGGUCCCAGCCUCCUCGCUGGCGGCGGCUGGGCAACAUUCCGAGGGGACCGUCCCCUCGGUAAUGGCGAAAGGGACCCA [C32G U79A] , please.
Result: 0.19

Request: Recorded self-cleavage of GGCCGGCAUGGUCCCAGCCUCGUCGCAGGCGCCGGCUGGGCAACAUUCCGAGGGGACCGUCCCCUCGGUAAUGGCGAAUGGGACCCA [C22G U27A] , please.
Result: 0.208

Request: Recorded self-cleavage of GGCCGGCAUGGUCCCAGCCUCCUCGCUGGCGCCGGCGGGGCAACAUUCUGAGGGGACCGUCCCCUCGGUAAUGGCGAAUGGGACCCA [U37G C49U] , please.
Result: 0.268

Request: Recorded self-cleavage of GGCCGGCCUGGUCCCAGCCUCCUCGCUGGCGCCGGCUGGGCAACGUUCCGAGGGGACCGUCCCCUCGGUAAUGGCGAAUGGGACCCA [A8C A45G] , please.
Result: 0.615

Request: Recorded self-cleavage of GGCCGGCAUGGUCCCAGCCUCCUCGCUGGCGCCGGCUCGGCAACAUUCCGAGGGGACCGUCCCCUCGGUAAUGGCGAAUGGGUCCCA [G38C A83U] , please.
Result: 0.0361

Request: Recorded self-cleavage of GGCCGGCAUGGUCCCAGCCUCCUCGCUGGCGCCGGCUGGGCAACCUUCCGAGGGGACCGUCCCCUCGGUAAGGGCGAAUGGGACCCA [A45C U72G] , please.
Result: 1.11

Request: Recorded self-cleavage of GGCCGGCAUGGUCCCAGCCUCCUUGCUGGCGCCGGCUGGGCAACAUUCCGAGGGGACCGUCCCCUCGGUAAUGGCGAAUGUGACCCA [C24U G81U] , please.
Result: 0.169

Request: Recorded self-cleavage of GGCCGGCAUGGUCCCAGCCUCCUCGCUGGGGCCGGCUGGGCAACAUUCCGAGGGGACCGUCCCCUCGGUAAUGGCGAAUGGGACCGA [C30G C86G] , please.
Result: 0.0536

Request: Recorded self-cleavage of GGCCGGCAUGGUCGCAGCCUCCUCGCUGGCGCCGGCUGGGCAACAUUCCGAGGGGACCGUCCCCUCGGUAAUGGCGAAUUGGACCCA [C14G G80U] , please.
Result: 0.261

Request: Recorded self-cleavage of GGCCGGCAUGGUCCCAACCUCCUCGCUGGCGCCGGCUGGGCAACAUUCCGAGGGGACCGUCCCCUAGGUAAUGGCGAAUGGGACCCA [G17A C66A] , please.
Result: 0.748

Request: Recorded self-cleavage of GGCCGGCAUGGUCCCAGUCUCCUCGCUGGCGCCGGCUGGGCAACAUUCCGAGGGGACCGUCCCCUCGGUGAUGGCGAAUGGGACCCA [C18U A70G] , please.
Result: 0.752

Request: Recorded self-cleavage of GGCCGGCAUGGUCCCAGCCUCCUCGCUGGCGCCGGGUGGGCAACAUUCCGAGGGGACCGUCUCCUCGGUAAUGGCGAAUGGGACCCA [C36G C62U] , please.
Result: 0.246

Request: Recorded self-cleavage of GGCCGGCAUGGUCCCAGCCUCCUCGCUGGCGCCGGCUGGGCAACAUUCCGAGGGGGCCGUCCCCUCGGUAAUGGCGAAUGGGAGCCA [A56G C84G] , please.
Result: 0.598

Request: Recorded self-cleavage of GGCCGACAUGGUCCCAGCCUCGUCGCUGGCGCCGGCUGGGCAACAUUCCGAGGGGACCGUCCCCUCGGUAAUGGCGAAUGGGACCCA [G6A C22G] , please.
Result: 0.0739
